Test: Solubility in solvents (dissolution in incubator, filtration through microfilter, visible absorption)
Format: physicochemical
Details: MeOH; 37° C., 12 hours; Table 2; 720 min
Readout Kind: Solubility in MeOH (µg/mL)

>>> print(df.to_string())
                                   compound  endpoint_result
0  CCn1c(=Cc2oc3ccccc3[n+]2CC)sc(=C2Sc3ccccc3N2C)c1=O [Compound D, reference compound]             2000

I. CCn1c(=Cc2oc3c4ccccc4ccc3[n+]2CC)sc(=C2Sc3ccccc3N2C)c1=O [drawing 128, reference compound]
II. CCn1c(=Cc2sc3cc(C)c(C)cc3[n+]2CC)sc(=C2Sc3ccccc3N2C)c1=O [drawing 127, reference compound]
Kindly identify the item with the lower Solubility in MeOH figure among these two: I and II Respond with the label that goes with your answer.
II
(II: 100 µg/mL, I: 150 µg/mL)

----------
Test: Solubility in solvents (dissolution in incubator, filtration through microfilter, visible absorption)
Type: physicochemical
Details: water, H2O; 37° C., 12 hours; Table 2; read-out: Solubility in H2O
Readout Kind: solubility at 12 h (µg/mL)

I. CCn1c(=Cc2oc3c4ccccc4ccc3[n+]2CC)sc(=C2Sc3ccccc3N2C)c1=O [Compound 134]
II. CCN1C(=CC=c2sc(=Cc3cc[n+](CC)c4ccccc34)n(CC)c2=O)C=Cc2ccccc21 [reference compound]
Would you kindly point out which of I and II has the smaller solubility at 12 h figure? Your answer should be the label attached to the chosen record.
II

----------
Assay: Solubility in solvents (dissolution in incubator, filtration through microfilter, visible absorption)
Format: physicochemical
Conditions: MeOH; 37° C., 12 hours; Table 1; 720 min
Text: The solubility of some of the compounds within formula (I) was accurately measured. The measurement of solubility was made in the following manner.
Readout Kind: Solubility in MeOH (µg/mL)

a. CCN1C(=CC=c2sc(=Cc3sc4c5ccccc5ccc4[n+]3CC)n(CC)c2=O)Sc2ccc3ccccc3c21 [Compound E, reference compound]
b. CCN1C(C)=CSC1=CC=c1sc(=Cc2sc3ccccc3[n+]2CC)n(CC)c1=O [Compound A, reference compound]
Form: Entry with minimum Solubility in MeOH (choose one): a / b Which one? Tell me its label.
a

----------
Assay: Solubility in solvents (dissolution in incubator, filtration through microfilter, visible absorption)
Type: physicochemical
Settings: MeOH; 37° C., 12 hours; Table 2; 720 min
Readout Kind: Solubility in MeOH

Sample answers from the record:
>>> df
                                   compound  endpoint_result
0  CCn1c(=Cc2oc3c4ccccc4ccc3[n+]2CC)sc(=C2Sc3ccccc3N2C)c1=O [Compound 134]    > 10000 µg/mL
1  CCn1c(=Cc2oc3ccccc3[n+]2CC)sc(=C2Sc3ccccc3N2C)c1=O [Compound 128]    > 10000 µg/mL

Turning now to a further compound:
response.value for CCn1c(=Cc2sc3cc(C)c(C)cc3[n+]2CC)sc(=C2Sc3ccccc3N2C)c1=O [Compound 110] (field: Solubility in MeOH) = > 10000 µg/mL

// provenance: patent US5424442A
